// reported GI50 for each item listed
system: SF-268; experiment: NCI tumour cell line growth inhibition, 48 h
Calls of active or inactive are those of the source. Rule as the data show it: active = GI50 up to about 1.1 µM and inactive = higher.
ENDPOINT: GI50

- COMPOUND: "C=C1CC2(OC1=O)c1ccccc1CCc1ccccc12"
  RESULT: "1.93 µM (inactive)"
- COMPOUND: "COc1cc2c(cc1O)CC[n+]1cc3c(OC)c(OC)ccc3cc1-2"
  RESULT: "> 100 µM (inactive)"
- COMPOUND: "CC(C(O)c1ccccc1)N(C)/N=N/c1nc2c([nH]1)c(=O)n(C)c(=O)n2C (stereo unspecified)"
  RESULT: "> 100 µM (inactive)"
- COMPOUND: "O=C1CSC(c2cccc(Oc3ccccc3)c2)N1c1cccc(Cl)c1Cl (stereo unspecified)"
  RESULT: "23.6 µM (inactive)"
- COMPOUND: "CCN(CC)CCn1c2c3ccccc3ccc2c2oc(=O)c3ccccc3c21"
  RESULT: "82.2 µM (inactive)"
- COMPOUND: "CC(=O)NNc1nc(C)c(C(=O)NNC(=O)C(=O)Nc2ccccc2C#N)s1"
  RESULT: "> 100 µM (inactive)"

----------
Consider the following molecules and their measured GI50 readings.
system: UACC-257; experiment: NCI tumour cell line growth inhibition, 48 h
The source made the active and inactive calls. Rule as the data show it: active = GI50 up to about 1.1 µM and inactive = higher.

- MOLECULE: "CN(/N=C\\c1ccc2ccccc2c1)C1=NCCCN1"
  GI50: "10.4 µM (inactive)"
- MOLECULE: "Cc1cnc(Cl)nc1C(C#N)c1nc2ccccc2s1 (stereo not given)"
  GI50: "31.7 µM (inactive)"
- MOLECULE: "Cc1cc(=O)oc2c(OS(C)(=O)=O)c(OS(C)(=O)=O)ccc12"
  GI50: "> 100 µM (inactive)"
- MOLECULE: "Nc1nc2cc(CNc3ccc(C(=O)NC(CCC(=O)O)C(=O)O)cc3)ccc2nc1-c1ccccc1 (stereo not given)"
  GI50: "> 10 µM (inactive)"
- MOLECULE: "N#Cc1c(Cl)c(C=O)c(=O)n2c1[nH]c1ccccc12"
  GI50: "56.8 µM (inactive)"
- MOLECULE: "Cc1ccnc(NS(=O)(=O)c2ccc(NC3=CC(=O)C(=O)c4ccccc43)cc2)n1"
  GI50: "> 100 µM (inactive)"
- MOLECULE: "O=c1cc(-c2ccccc2)c2cc3c(=O)ccoc3cc2o1"
  GI50: "> 100 µM (inactive)"
- MOLECULE: "CS(=O)(=O)Nc1ccc(Nc2c3ccccc3nc3ccccc23)cc1"
  GI50: "1.36 µM (inactive)"
- MOLECULE: "CCCC(OCC)(OCC)OCC"
  GI50: "> 100 µM (inactive)"
- MOLECULE: "O=S(=O)(c1ccccc1)N1CCCC(c2ccccc2)CC1 (stereo not given)"
  GI50: "38.9 µM (inactive)"

----------
system: UACC-62; experiment: NCI tumour cell line growth inhibition, 48 h
Calls of active or inactive are those of the source. Cut-off read from the data, not from the text of the source: active = GI50 up to about 1.1 µM and inactive = higher.
Possible outcomes: active, inactive

- COMPOUND: "COc1cc(-c2cc(OC)c(OC)c3ccc(Br)cc23)c2cc(Br)ccc2c1OC"
  ASSIGNED CLASS: "inactive"
- COMPOUND: "NCCCC(N)C(=O)O (stereo unspecified)"
  ASSIGNED CLASS: "inactive"
- COMPOUND: "C[C@]12CCCC(=O)C1C[C@H](C(=O)O)CC2 (stereo partly specified)"
  ASSIGNED CLASS: "inactive"
- COMPOUND: "CCOP1(=O)C=CC(Cl)=C(C)C1 (stereo unspecified)"
  ASSIGNED CLASS: "inactive"
- COMPOUND: "COC(=O)c1cccc(N[C@@H]2c3cc4c(cc3C(c3cc(OC)c(O)c(OC)c3)[C@H]3C(=O)OCC32)OCO4)c1 (stereo partly specified)"
  ASSIGNED CLASS: "active"
- COMPOUND: "CCOC(=O)c1nc2cc(C(F)(F)F)ccc2nc1Oc1ccc(C(=O)OC)cc1"
  ASSIGNED CLASS: "inactive"
- COMPOUND: "O=C1CSC(c2cccc(Oc3ccccc3)c2)N1c1cccc(Cl)c1Cl (stereo unspecified)"
  ASSIGNED CLASS: "inactive"
- COMPOUND: "Cc1cc2c(cc1C(=O)c1ccc(N)cc1)OCO2"
  ASSIGNED CLASS: "inactive"
- COMPOUND: "O=C1C(NCCO)=C(N2CC2)C(=O)C(NCCO)=C1N1CC1"
  ASSIGNED CLASS: "inactive"
- COMPOUND: "CCOC(=O)/C(C#N)=C/N(CC)/N=C/c1ccccc1"
  ASSIGNED CLASS: "inactive"
- COMPOUND: "c1nc(NCCc2c[nH]cn2)c2nc[nH]c2n1"
  ASSIGNED CLASS: "inactive"

----------
system: ACHN; experiment: NCI tumour cell line growth inhibition, 48 h
Active and inactive are the calls of the source. Rule as the data show it: active = GI50 up to about 1.1 µM and inactive = higher.
Outcome codes: 1.0 for active, 0.0 for inactive

- MOLECULE: "COC(=O)C1OC(O[C@H]2CC[C@]3(C)[C@H]4CC=C5[C@@H]6CC(C)(C)CC[C@]6(C(=O)OC6OCC(O)C(O)C6OC6OC(C)C(OC7OCC(OC8OCC(O)C(O)C8O)C(O)C7O)C(O)C6O)[C@H](O)C[C@@]5(C)[C@]4(C)CC[C@H]3C2(C)C)C(O)C(O)C1O (stereo partly drawn)"
  ASSIGNED CLASS: 0.0
- MOLECULE: "O=C(CC(Cc1ccccc1)c1ccc(Oc2ccccc2)cc1)Nc1cccc(Cl)c1 (stereo not drawn)"
  ASSIGNED CLASS: 0.0
- MOLECULE: "Cc1cc(NS(=O)(=O)c2ccc(NC(NC(=O)OC(C)C)(C(F)(F)F)C(F)(F)F)cc2)nc(C)n1"
  ASSIGNED CLASS: 0.0
- MOLECULE: "Oc1nc(S)nc2c1CN(CCCN1CCOCC1)CN2"
  ASSIGNED CLASS: 0.0
- MOLECULE: "CC1=COC(=O)c2ccccc2N1"
  ASSIGNED CLASS: 0.0
- MOLECULE: "COc1ccc2cc(C(=O)O)ccc2c1OC"
  ASSIGNED CLASS: 0.0
- MOLECULE: "COC(=O)c1ccccc1/C=C1/Cc2ccccc2C1=O"
  ASSIGNED CLASS: 0.0
- MOLECULE: "CC(CO)C1C[C@H](O)[C@@]2(C)CC(=O)C=C(CO)[C@@H]2C1 (stereo partly drawn)"
  ASSIGNED CLASS: 0.0
- MOLECULE: "CCOc1ccc(/C=C(\\Cl)c2ccc(OC)cc2)cc1"
  ASSIGNED CLASS: 0.0
- MOLECULE: "CN1CC=C(C#CC(C)(C)O)CC1"
  ASSIGNED CLASS: 0.0
- MOLECULE: "CCCCc1c2c(nc3c1CC/C(=C\\c1ccccc1)C3=O)CCCC2"
  ASSIGNED CLASS: 0.0
- MOLECULE: "COC(=O)c1cc(C)ccc1/C=C1\\Cc2c(C)cc(C)cc2C1=O"
  ASSIGNED CLASS: 0.0
- MOLECULE: "COc1cccc(NC(=O)CSc2nnc(-c3ccc(NC(C)=O)cc3)o2)c1"
  ASSIGNED CLASS: 0.0
- MOLECULE: "c1cc(-c2sc(-c3ccncc3)c(-c3ccncc3)c2-c2ccncc2)ccn1"
  ASSIGNED CLASS: 0.0
- MOLECULE: "CC(C(O)c1ccccc1)N(C)/N=N/c1nc2c([nH]1)c(=O)n(C)c(=O)n2C (stereo not drawn)"
  ASSIGNED CLASS: 0.0
- MOLECULE: "O=C(O)[C@@H]1C[C@@H](O)CN1"
  ASSIGNED CLASS: 0.0
- MOLECULE: "O=[N+]([O-])c1ccc(Cl)cc1N/N=C/c1ccnc2ccccc12"
  ASSIGNED CLASS: 0.0
- MOLECULE: "CC(=O)OC1CC2C(C)(C)C(=O)C=C[C@]2(C)C2CCC3(C)C(c4ccoc4)C(=O)[C@H]4O[C@]43[C@]12C (stereo partly drawn)"
  ASSIGNED CLASS: 0.0
- MOLECULE: "O=C1NC(=O)/C(=C/c2ccc(S(=O)(=O)N/N=C/c3ccc(Cl)cc3)cc2)N1"
  ASSIGNED CLASS: 0.0
- MOLECULE: "Cc1ccc(S(=O)(=O)Nc2cccc3c(=O)nc[nH]c23)cc1"
  ASSIGNED CLASS: 0.0
- MOLECULE: "COc1cc(O)c2c(=O)c(OC)c(-c3ccc4c(c3)OCO4)oc2c1OC"
  ASSIGNED CLASS: 0.0
- MOLECULE: "CCOC(=O)c1ccc(/N=N/N(C)C(=O)C(C)N)cc1 (stereo not drawn)"
  ASSIGNED CLASS: 0.0
- MOLECULE: "CC(C)(C)C1=CC(=C2C=Cc3cc(O)ccc3O2)C=C(C(C)(C)C)C1=O"
  ASSIGNED CLASS: 0.0
- MOLECULE: "CCOC(=O)C(C(=O)c1ccccc1)=C1NCCN1"
  ASSIGNED CLASS: 0.0
- MOLECULE: "[N-]=[N+]=NCC1OC(n2cnc3c(N)ncnc32)C2OC12 (stereo not drawn)"
  ASSIGNED CLASS: 0.0
- MOLECULE: "Nc1nc(SCc2ccccc2Cl)cc(C(=O)O)n1"
  ASSIGNED CLASS: 0.0
- MOLECULE: "c1nc(NCCc2c[nH]cn2)c2nc[nH]c2n1"
  ASSIGNED CLASS: 0.0
- MOLECULE: "C/C(=N\\NC(=S)N1CCN(c2ccccn2)CC1)c1cccc2cccnc12"
  ASSIGNED CLASS: 0.0
- MOLECULE: "COc1ccc(/C(=N\\NC(=O)C(=O)NN)C(c2ccc(OC)cc2)C2(O)C(=O)Nc3ccccc32)cc1 (stereo not drawn)"
  ASSIGNED CLASS: 0.0
- MOLECULE: "O=C(CSc1nnc(Cc2ccccc2)o1)Nc1ccccc1Cl"
  ASSIGNED CLASS: 0.0
- MOLECULE: "CC(=O)NNc1nc(C)c(C(=O)NNC(=O)C(=O)Nc2ccccc2C#N)s1"
  ASSIGNED CLASS: 0.0
- MOLECULE: "Cc1ccc(N2C(=O)/C(=C3\\SC(C(N)=O)=C(N)N3c3ccccc3)SC2=S)cc1"
  ASSIGNED CLASS: 0.0
- MOLECULE: "CCN(CC)CCC(=O)c1ccc(Oc2ccccc2)cc1"
  ASSIGNED CLASS: 0.0
- MOLECULE: "Nc1nonc1-c1noc(-c2nonc2N)[n+]1[O-]"
  ASSIGNED CLASS: 0.0
- MOLECULE: "COc1ccc(-c2cc(-c3cc(C)ccc3O)nc(O)n2)cc1"
  ASSIGNED CLASS: 0.0
- MOLECULE: "Cc1cc(=O)oc2c(C)c(O)ccc12"
  ASSIGNED CLASS: 0.0
- MOLECULE: "C=C(C)C1Cc2cc(C(C)=O)ccc2O1 (stereo not drawn)"
  ASSIGNED CLASS: 0.0
- MOLECULE: "C=CCOc1cc2c(cc1C(C)c1ccc(OC)cc1)OCO2 (stereo not drawn)"
  ASSIGNED CLASS: 1.0
- MOLECULE: "Cc1csc(CP(=O)(OC(C)C)OC(C)C)n1"
  ASSIGNED CLASS: 0.0
- MOLECULE: "CC(C)C(=O)/C=C/c1c(Cl)cccc1Cl"
  ASSIGNED CLASS: 0.0
- MOLECULE: "CN(C1=NCCO1)c1cccc2c1CCCC2"
  ASSIGNED CLASS: 0.0
- MOLECULE: "Cc1cccc(-n2c(C)nc3ccc(NC(=S)Nc4ccccc4)cc3c2=O)c1"
  ASSIGNED CLASS: 0.0
- MOLECULE: "NC(=O)c1c[se]c(C2OC(COP(=O)(O)CP(=O)(O)OCC3OC(n4cnc5c(N)ncnc54)C(O)C3O)C(O)C2O)n1 (stereo not drawn)"
  ASSIGNED CLASS: 0.0
